Where do the numbers come from? From patent US20250136594A1.

pIC50 values for the molecules below.
Test system: SDMA in HAP1 MTAP-intact cell line (PRMT5 inhibition)
Assay: SDMA in-cell western assay, HAP1 MTAP-intact cell line
Conditions: Homo sapiens, HAP1, read-out: Hap1 MTAP intact IC50
pIC50: −log10 of the molar value.

MOLECULE	pIC50
Cc1cc(F)cnc1CN(Cc1ccccc1)C(=O)C(=O)Nc1cnc(N)c2cn[nH]c12 [Compound 116]	7.30 to 8.30
Nc1ncc(NC(=O)C(=O)N(Cc2ccccc2)Cc2ccccc2C(F)(F)F)c2[nH]ncc12 [Compound 95]	> 8.30
Nc1ncc(NC(=O)C(=O)N(Cc2ccc(C(F)(F)F)cn2)C2CC2)c2[nH]ncc12 [Compound 159]	< 7.30
Nc1ncc(NC(=O)C(=O)N(Cc2ccccc2)C2CCCc3ccccc32)c2[nH]ncc12 (racemic) [Compound 141]	7.30 to 8.30
COc1ncc(NC(=O)C(=O)N(Cc2ccc(C(F)(F)F)cn2)[C@@H]2CCc3ccccc32)cc1C(N)=O [Compound 30]	< 7.30
Cc1cc(NC(=O)C(=O)N(Cc2ccc(C(F)(F)F)cn2)[C@@H]2CCC[C@H]2OC(F)F)cnc1N [Compound 19]	7.30 to 8.30
C[C@H](c1ccc(C(F)(F)C(F)(F)F)cc1)N(C)C(=O)C(=O)Nc1cnc(N)c2c1cnn2C [Compound 81]	7.30 to 8.30
Cc1cc(NC(=O)C(=O)N(Cc2ccc(C(F)(F)F)cn2)[C@@H]2CC[C@@H](C)c3ccccc32)cnc1N (stereo in doubt) [Compound 51]	7.30 to 8.30
Cc1ccccc1CN(Cc1ccc(C(F)(F)F)cn1)C(=O)C(=O)Nc1cnc(N)c2cn[nH]c12 [Compound 76]	7.30 to 8.30
CCc1cc(NC(=O)C(=O)N(Cc2ccc(C(F)(F)F)cn2)[C@@H](COC)C2CC2)cnc1N [Compound 7]	< 7.30
CN(Cc1ccc(C(F)(F)F)cc1F)C(=O)C(=O)Nc1cnc(N)c2cn[nH]c12 [Compound 96]	< 7.30
COc1ncc(NC(=O)C(=O)N(Cc2ccc(C(F)(F)F)cn2)C2CCC(C)c3ccccc32)cc1C(N)=O (stereo not shown) [Compound 33]	< 7.30
Cc1cccc(CN(Cc2ccccc2)C(=O)C(=O)Nc2cnc(N)c3cn[nH]c23)n1 [Compound 191]	7.30 to 8.30
CC[C@@H](C)CN(Cc1ccccc1C)C(=O)C(=O)Nc1cnc(N)c2cn[nH]c12 [Compound 62]	7.30 to 8.30
Cn1nccc1CN(Cc1ccccc1)C(=O)C(=O)Nc1cnc(N)c2cn[nH]c12 [Compound 125]	7.30 to 8.30
C[C@H](c1ccc(C(F)(F)C(F)(F)F)cc1F)N(C)C(=O)C(=O)Nc1cnc(N)c2cn[nH]c12 [Compound 188]	7.30 to 8.30
CC(C)c1ccccc1CN(C)C(=O)C(=O)Nc1cnc(N)c2cn[nH]c12 [Compound 183]	< 7.30
Nc1ncc(NC(=O)C(=O)N(Cc2ccccn2)Cc2ccccn2)c2[nH]ncc12 [Compound 89]	< 7.30
Cc1ccnc(CN(Cc2ccccc2)C(=O)C(=O)Nc2cnc(N)c3cn[nH]c23)c1 [Compound 156]	< 7.30
CCC(C)CN(Cc1ccccn1)C(=O)C(=O)Nc1cnc(N)c2cn[nH]c12 (stereo not shown) [Compound 152]	< 7.30
Nc1ncc(NC(=O)C(=O)N(Cc2ccccn2)Cc2cccc(Cl)c2Cl)c2[nH]ncc12 [Compound 91]	> 8.30
Nc1ncc(NC(=O)C(=O)N(Cc2ccccn2)Cc2cccc3c2CCCO3)c2[nH]ncc12 [Compound 92]	> 8.30
